molecular target: Arginine Vasopressin Receptor 1A (AVPR1A) (Homo sapiens); assay: Calcium flux assay, AVPR1A
Sequence (P37288 whole entry): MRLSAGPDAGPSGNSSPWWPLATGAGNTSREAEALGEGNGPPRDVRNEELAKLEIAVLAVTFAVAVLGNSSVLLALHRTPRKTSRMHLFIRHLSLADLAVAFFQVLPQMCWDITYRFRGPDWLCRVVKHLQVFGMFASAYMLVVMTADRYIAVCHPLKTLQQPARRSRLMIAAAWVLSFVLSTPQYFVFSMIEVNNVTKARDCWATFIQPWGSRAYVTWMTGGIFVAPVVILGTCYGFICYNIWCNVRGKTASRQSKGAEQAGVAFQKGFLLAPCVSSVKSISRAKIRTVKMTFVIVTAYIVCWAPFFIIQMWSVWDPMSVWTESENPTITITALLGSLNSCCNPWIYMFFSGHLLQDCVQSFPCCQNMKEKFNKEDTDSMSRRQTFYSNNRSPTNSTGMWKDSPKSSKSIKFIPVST
Counter-ions that a name gives are not always drawn.
reported_property: EC50

>  <molecule>
CNC(C)C(=O)c1c[nH]c2ccc(F)cc12 (stereo not drawn) [BK-5F-NM-AMT, hydrochloride]

>  <reading>
> 10 µM

$$$$
>  <molecule>
CNC(C)C(=O)c1c[nH]c2ccc(Cl)cc12 (stereo not drawn) [BK-5Cl-NM-AMT, hydrochloride]

>  <reading>
> 10 µM

$$$$

Consider the additional molecule presented here.
# lookup: EC50 of CNC(C)C(=O)c1c[nH]c2ccc(Br)cc12 (stereo not drawn) [BK-5Br-NM-AMT, hydrochloride]
> 10 µM
